# credit: ChEMBL document CHEMBL4184101

experimentalDetails: Stability in human liver microsomes by LC/MS/MS analysis
Assay type: ADME, microsome
conditions: read-out: Stability
*1 amine or outer side, *2 acyl side, *3 side chain or, on linkers, in order; H or OH if unused. Where a SMILES comes first, the peptide text is derived from it. Bridges are numbered along the chain shown (N, C = ends). [ ]: non-standard residue; d: D form. The star is where a group is joined. X3 = c1ccc(OC[C@@H]2CCCN2*)cc1; X5 = c1ccc(NC[C@@H]2CCCN2*)cc1; Cysteamide = C(CS[*:3])N[*:1]; X6 = Cc1nnc([C@@H]2CCCN2*)o1; X4 = COC[C@@H]1CCCN1*; X2 = C[C@H]1CCCN1*; Mpa = O=C(O)CCS
reportedEndpoint: CLint scaled

Example compounds with recorded CLint scaled:
{"compound": "CC[C@H](C)[C@@H]1NC(=O)[C@H](Cc2ccc(O)cc2)NC(=O)CCSSC[C@@H](C(=O)N2CCC[C@H]2COc2ccccc2)NC(=O)[C@H](CC(N)=O)NC(=O)[C@H](CCC(N)=O)NC1=O ([Mpa]YIQNC-X3; disulfide 1-6)", "CLint scaled": "123 mL/min/kg"}
{"compound": "CC[C@H](C)[C@@H]1NC(=O)[C@H](Cc2ccc(O)cc2)NC(=O)CCSSCCNC(=O)[C@H](CC(N)=O)NC(=O)[C@H](CCC(N)=O)NC1=O ([Mpa]YIQN-Cysteamide; disulfide 1-C)", "CLint scaled": "< 8 mL/min/kg"}
{"compound": "CC[C@H](C)[C@@H]1NC(=O)[C@H](Cc2ccc(O)cc2)NC(=O)CCSSC[C@@H](C(=O)N2CCC[C@H]2c2nnc(C)o2)NC(=O)[C@H](CC(N)=O)NC(=O)[C@H](CCC(N)=O)NC1=O ([Mpa]YIQNC-X6; disulfide 1-6)", "CLint scaled": "< 8 mL/min/kg"}
{"compound": "CC[C@H](C)[C@@H]1NC(=O)[C@H](Cc2ccc(O)cc2)NC(=O)CCSSC[C@@H](C(=O)N2CCC[C@@H]2C)NC(=O)[C@H](CC(N)=O)NC(=O)[C@H](CCC(N)=O)NC1=O ([Mpa]YIQNC-X2; disulfide 1-6)", "CLint scaled": "< 8 mL/min/kg"}
{"compound": "CC[C@H](C)[C@@H]1NC(=O)[C@H](Cc2ccc(O)cc2)NC(=O)CCSSC[C@@H](C(=O)N2CCC[C@H]2CNc2ccccc2)NC(=O)[C@H](CC(N)=O)NC(=O)[C@H](CCC(N)=O)NC1=O ([Mpa]YIQNC-X5; disulfide 1-6)", "CLint scaled": "40 mL/min/kg"}

Hi! Can you tell me CLint scaled for each of these compounds?
1. CC[C@H](C)[C@@H]1NC(=O)[C@H](Cc2ccc(O)cc2)NC(=O)CCSSC[C@@H](C(=O)N2CCC[C@H]2C(=O)N[C@@H](CC(C)C)C(=O)NCC(N)=O)NC(=O)[C@H](CC(N)=O)NC(=O)[C@H](CCC(N)=O)NC1=O
2. CC[C@H](C)[C@@H]1NC(=O)[C@H](Cc2ccc(O)cc2)NC(=O)CCSSC[C@@H](C(=O)N2CCC[C@H]2COC)NC(=O)[C@H](CC(N)=O)NC(=O)[C@H](CCC(N)=O)NC1=O ([Mpa]YIQNC-X4; disulfide 1-6)

RESULT:
["< 8 mL/min/kg", "< 8 mL/min/kg"]
